Observed pKi, system Sodium-dependent serotonin transporter (Rattus norvegicus, UniProt P31652).
pKi: −log10 of the molar value.

COMPOUND	TARGET OR SYSTEM	pKi
CCCc1cccc(N2[C@@H]3CC[C@H]2C[C@H](OC(c2ccc(Cl)cc2)c2ccc(Cl)cc2)C3)c1	Sodium-dependent serotonin transporter (Rattus norvegicus, UniProt P31652)	6.23
CCCc1cccc(N2[C@@H]3CC[C@H]2C[C@H](OC(c2ccccc2)c2cccc(Cl)c2)C3)c1 (stereo partly drawn)	Sodium-dependent serotonin transporter (Rattus norvegicus, UniProt P31652)	6.37
CCCCc1cccc(N2C3CCC2CC(OC(c2ccccc2)c2cccc(Cl)c2)C3)c1 (stereo not drawn)	Sodium-dependent serotonin transporter (Rattus norvegicus, UniProt P31652)	6.23
CN1[C@@H]2CC[C@H]1C[C@@H](OC(c1ccccc1)c1cccc(Cl)c1)C2 (stereo partly drawn)	Sodium-dependent serotonin transporter (Rattus norvegicus, UniProt P31652)	6.59
Clc1cccc(C(OC2CC3CCC(C2)N3Cc2ccccc2)c2ccccc2)c1 (stereo not drawn)	Sodium-dependent serotonin transporter (Rattus norvegicus, UniProt P31652)	5.77
Clc1cccc(C(OC2CC3CCC(C2)N3)c2ccccc2)c1 (stereo not drawn)	Sodium-dependent serotonin transporter (Rattus norvegicus, UniProt P31652)	5.68
C=CCN1C2CCC1CC(OC(c1ccc(Cl)cc1)c1ccc(Cl)cc1)C2 (stereo not drawn)	Sodium-dependent serotonin transporter (Rattus norvegicus, UniProt P31652)	6.25
C=CCN1C2CCC1CC(OC(c1ccccc1)c1cccc(Cl)c1)C2 (stereo not drawn)	Sodium-dependent serotonin transporter (Rattus norvegicus, UniProt P31652)	5.92

---

TARGET OR SYSTEM: Muscarinic acetylcholine receptor M1 (Rattus norvegicus, UniProt P08482)
Sequence (P08482 whole entry): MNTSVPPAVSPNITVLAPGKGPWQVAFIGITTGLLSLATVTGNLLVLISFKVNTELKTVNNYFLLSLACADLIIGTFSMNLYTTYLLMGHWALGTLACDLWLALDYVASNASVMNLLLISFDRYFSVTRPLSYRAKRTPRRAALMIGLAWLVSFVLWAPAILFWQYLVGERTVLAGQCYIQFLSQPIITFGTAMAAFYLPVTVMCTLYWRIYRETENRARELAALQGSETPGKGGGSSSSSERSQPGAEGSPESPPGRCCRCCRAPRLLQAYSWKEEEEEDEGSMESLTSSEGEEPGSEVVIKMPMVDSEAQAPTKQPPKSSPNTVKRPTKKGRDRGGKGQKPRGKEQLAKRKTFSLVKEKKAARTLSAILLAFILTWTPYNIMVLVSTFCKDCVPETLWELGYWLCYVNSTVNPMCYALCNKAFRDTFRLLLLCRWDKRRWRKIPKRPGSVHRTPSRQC
pKi: −log10 of the molar value.
Classify as follows. Reported pKi greater than or equal to 6: Met. Reported pKi below: Not met.

MOLECULE	DISCRETE LABEL
Clc1ccc(C(OC2CC3CCC(C2)N3Cc2ccccc2)c2ccc(Cl)cc2)cc1 (stereo unspecified)	Not met
C=CCN1C2CCC1CC(OC(c1ccc(Cl)cc1)c1ccc(Cl)cc1)C2 (stereo unspecified)	Met
C=CCN1C2CCC1CC(OC(c1ccccc1)c1ccc(Cl)cc1)C2 (stereo unspecified)	Met
C=CCN1C2CCC1CC(OC(c1ccccc1)c1cccc(Cl)c1)C2 (stereo unspecified)	Met
CCCc1cccc(N2[C@@H]3CC[C@H]2C[C@H](OC(c2ccc(Cl)cc2)c2ccc(Cl)cc2)C3)c1	Not met
CCCCc1cccc(N2C3CCC2CC(OC(c2ccccc2)c2cccc(Cl)c2)C3)c1 (stereo unspecified)	Met
Clc1ccc(C(OC2CC3CCC(C2)N3)c2ccc(Cl)cc2)cc1 (stereo unspecified)	Met
CCCCc1cccc(N2[C@@H]3CC[C@H]2C[C@H](OC(c2ccc(Cl)cc2)c2ccc(Cl)cc2)C3)c1	Not met
Clc1ccc(C(OC2CC3CCC(C2)N3)c2ccccc2)cc1 (stereo unspecified)	Met
Clc1cccc(C(OC2CC3CCC(C2)N3)c2ccccc2)c1 (stereo unspecified)	Met
CCCc1cccc(N2[C@H]3CC[C@]2(C)C[C@@H](OC(c2ccccc2)c2ccc(Cl)cc2)C3)c1 (stereo partly specified)	Met
CN1C2CCC1CC(OC(c1ccccc1)c1ccc(Cl)cc1)C2 (stereo unspecified)	Met
CCCc1cccc(N2[C@@H]3CC[C@H]2C[C@H](OC(c2ccccc2)c2cccc(Cl)c2)C3)c1 (stereo partly specified)	Met
Clc1ccc(C(OC2CC3CCC(C2)N3Cc2ccccc2)c2ccccc2)cc1 (stereo unspecified)	Not met
